System: endogenous target monocytes in human PBMC
Measurement Notes: PBMC ex vivo monocyte depletion flow cytometry assay (Example 200)
Format: cell-based
Test Conditions: with anti-cotinine antibody SEQ ID NO: 11/12, 18-24 hours, read-out: Ex Vivo Depletion Assay pEC50 (converted)
Measured Endpoint: EC50 (nM)

| Compound | Assay Result |
| --- | --- |
| CC(C)N(C)[C@@H]1CC[C@H](N2CC[C@H](Nc3ncnc4ccc(C(F)(F)F)cc34)C2=O)[C@H](NC(=O)[C@H]2CC[C@@H](N3CCN(S(=O)(=O)C4CCN(C(=O)[C@H](C)NC(=O)[C@H]5CC(=O)N(C)[C@@H]5c5cccnc5)CC4)CC3)CC2)C1 | 0.794 |
| CC(C)N(C)[C@@H]1CC[C@H](N2CC[C@H](Nc3ncnc4ccc(C(F)(F)F)cc34)C2=O)[C@H](NC(=O)[C@H]2CC[C@H](N3CCN(S(=O)(=O)C4CCN(C(=O)[C@H](C)NC(=O)[C@H]5CC(=O)N(C)[C@@H]5c5cccnc5)CC4)CC3)CC2)C1 | 0.1 |
| CC(C)N(C)[C@@H]1CCC(N2CC[C@H](Nc3ncnc4ccc(C(F)(F)F)cc34)C2=O)[C@H](NC(=O)CCOCCOCCOCCOCCNC(=O)[C@H]2CC(=O)N(C)[C@@H]2c2cccnc2)C1 (stereo partly shown) | 2510 |
| CN1C(=O)C[C@H](C(=O)NCCOCCOCCOCCOCCOCCC(=O)N[C@@H]2C[C@H](NC(C)(C)C)CC[C@@H]2N2CC[C@H](Nc3ncnc4ccc(C(F)(F)F)cc34)C2=O)[C@H]1c1cccnc1 | 5.01 |

====

Experimental Target: human alpha1 nicotinic acetylcholine (nACh) receptor (Homo sapiens, UniProt P02708+Q07001)
Sequence (P02708 21-457): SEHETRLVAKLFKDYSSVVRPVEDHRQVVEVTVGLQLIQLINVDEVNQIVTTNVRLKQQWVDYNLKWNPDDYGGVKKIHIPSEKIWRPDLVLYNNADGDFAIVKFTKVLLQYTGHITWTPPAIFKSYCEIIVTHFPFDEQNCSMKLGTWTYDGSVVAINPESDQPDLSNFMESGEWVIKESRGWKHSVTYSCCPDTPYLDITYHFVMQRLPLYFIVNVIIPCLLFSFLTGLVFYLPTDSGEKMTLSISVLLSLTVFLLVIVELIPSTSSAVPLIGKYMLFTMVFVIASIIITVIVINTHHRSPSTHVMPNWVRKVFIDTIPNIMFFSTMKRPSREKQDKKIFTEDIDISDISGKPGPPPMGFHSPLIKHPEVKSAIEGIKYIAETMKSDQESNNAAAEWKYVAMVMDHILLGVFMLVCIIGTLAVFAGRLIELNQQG
Sequence (P11230 24-501 partner): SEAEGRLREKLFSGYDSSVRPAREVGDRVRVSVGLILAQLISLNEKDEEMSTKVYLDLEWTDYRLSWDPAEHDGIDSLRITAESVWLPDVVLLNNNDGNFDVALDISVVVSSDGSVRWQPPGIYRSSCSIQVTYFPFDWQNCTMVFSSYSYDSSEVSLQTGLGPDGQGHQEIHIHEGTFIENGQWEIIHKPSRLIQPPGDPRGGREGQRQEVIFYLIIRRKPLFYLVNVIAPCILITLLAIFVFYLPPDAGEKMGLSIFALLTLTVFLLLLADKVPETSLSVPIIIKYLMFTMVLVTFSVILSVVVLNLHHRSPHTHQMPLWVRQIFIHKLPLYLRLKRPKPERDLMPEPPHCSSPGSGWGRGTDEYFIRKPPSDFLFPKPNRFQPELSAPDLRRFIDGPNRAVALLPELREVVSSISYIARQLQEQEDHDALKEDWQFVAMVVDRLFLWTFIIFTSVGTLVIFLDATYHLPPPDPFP
Sequence (Q07001 22-517): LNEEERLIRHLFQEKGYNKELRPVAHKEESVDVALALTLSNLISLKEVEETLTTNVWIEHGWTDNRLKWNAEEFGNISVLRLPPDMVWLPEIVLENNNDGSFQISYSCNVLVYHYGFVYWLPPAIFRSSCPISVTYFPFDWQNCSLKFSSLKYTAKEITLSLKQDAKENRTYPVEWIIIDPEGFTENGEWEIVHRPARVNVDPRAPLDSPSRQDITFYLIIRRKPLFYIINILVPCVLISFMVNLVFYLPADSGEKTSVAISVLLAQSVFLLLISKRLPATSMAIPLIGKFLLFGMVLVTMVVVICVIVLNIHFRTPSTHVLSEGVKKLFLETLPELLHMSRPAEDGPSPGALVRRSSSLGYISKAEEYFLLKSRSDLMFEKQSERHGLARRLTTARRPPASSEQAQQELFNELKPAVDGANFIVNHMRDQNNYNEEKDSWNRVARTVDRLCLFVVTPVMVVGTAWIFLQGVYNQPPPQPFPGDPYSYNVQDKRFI
Measurement Notes: Nicotinic acetylcholine receptor antagonism assay, IONFlux automated patch clamp (Example 203)
Format: cell-based
Test Conditions: nAChR antagonism; ACh stimulated; patch clamp
IC50 values for the compounds below.

| Compound | Unit Name | Bound Type | IC50 |
| --- | --- | --- | --- |
| CC(C)N(C)[C@@H]1CC[C@H](N2CC[C@H](Nc3ncnc4ccc(C(F)(F)F)cc34)C2=O)[C@H](NC(=O)[C@H]2CC[C@H](NC(=O)CCCOC[C@H]3CC[C@@H](COCCNC(=O)[C@H]4CC(=O)N(C)[C@@H]4c4cccnc4)CC3)CC2)C1 [Example 57] | µM | > | 30 |
| CC(C)N(C)[C@@H]1CC[C@H](N2CC[C@H](Nc3ncnc4ccc(C(F)(F)F)cc34)C2=O)[C@H](NC(=O)[C@H]2CC[C@@H](NC(=O)COCCNC(=O)COCCNC(=O)[C@H]3CC(=O)N(C)[C@@H]3c3cccnc3)CC2)C1 [Example 99] | µM | = | 33.1 |
| CN1C(=O)C[C@H](C(=O)NCCOCCOCCOCCOCCOCCC(=O)N[C@@H]2C[C@H](NC(C)(C)C)CC[C@@H]2N2CC[C@H](Nc3ncnc4ccc(C(F)(F)F)cc34)C2=O)[C@H]1c1cccnc1 [Example 37] | µM | > | 10 |
| CC(C)N(C)[C@@H]1CCC(N2CC[C@H](Nc3ncnc4ccc(C(F)(F)F)cc34)C2=O)[C@H](NC(=O)CCOCCOCCOCCOCCOCCNC(=O)[C@H]2CC(=O)N(C)[C@@H]2c2cccnc2)C1 (some centres unmarked) [Example 40] | µM | > | 10 |
| CC(C)N(C)[C@@H]1CC[C@H](N2CC[C@H](Nc3ncnc4ccc(C(F)(F)F)cc34)C2=O)[C@H](NC(=O)CNC(=O)[C@H]2CC[C@@H](NC(=O)CCOCCOCCNC(=O)[C@H]3CC(=O)N(C)[C@@H]3c3cccnc3)CC2)C1 [Example 137] | µM | = | 70 |
| CN1C(=O)C[C@H](C(=O)NCCOCCOCCOCCC(=O)N[C@H]2CC[C@@H](C(=O)N[C@@H]3C[C@H](NC(C)(C)C)CC[C@@H]3N3CC[C@H](Nc4ncnc5ccc(C(F)(F)F)cc45)C3=O)CC2)[C@H]1c1cccnc1 [Example 23] | µM | = | 85.2 |
| CC(C)N(C)[C@@H]1CC[C@H](N2CC[C@H](Nc3ncnc4ccc(C(F)(F)F)cc34)C2=O)[C@H](NC(=O)C2CCN(c3ccc(C(=O)NCCOCCOCCNC(=O)[C@H]4CC(=O)N(C)[C@@H]4c4cccnc4)cc3)CC2)C1 [Example 142] | µM | > | 10 |
| CCN1C(=O)C[C@H](C(=O)NCCOCCOCCOCCC(=O)N[C@H]2CC[C@@H](C(=O)N[C@@H]3C[C@H](NC(C)(C)C)CC[C@@H]3N3CC[C@H](Nc4ncnc5ccc(C(F)(F)F)cc45)C3=O)CC2)[C@H]1c1cccnc1 [Example 35] | µM | = | 89.2 |

Entry source: patent US20250136722A1
